This document collects ΔTm values reported for UniProt Q00536.
Sequence (Q00536 whole entry): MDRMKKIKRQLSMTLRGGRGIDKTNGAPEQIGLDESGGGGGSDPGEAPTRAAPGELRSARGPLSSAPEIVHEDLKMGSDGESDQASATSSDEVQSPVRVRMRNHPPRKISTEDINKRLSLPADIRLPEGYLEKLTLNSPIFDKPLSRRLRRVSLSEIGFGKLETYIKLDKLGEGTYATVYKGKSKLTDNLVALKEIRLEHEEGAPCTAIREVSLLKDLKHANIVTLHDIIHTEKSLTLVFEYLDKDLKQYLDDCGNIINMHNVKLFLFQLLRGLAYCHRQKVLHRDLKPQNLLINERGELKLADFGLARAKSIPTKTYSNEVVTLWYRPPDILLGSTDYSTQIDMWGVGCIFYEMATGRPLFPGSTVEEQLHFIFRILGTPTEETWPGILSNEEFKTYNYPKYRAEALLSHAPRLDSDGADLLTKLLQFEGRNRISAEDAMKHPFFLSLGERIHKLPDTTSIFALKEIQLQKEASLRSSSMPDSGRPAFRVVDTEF
Output spec: scalar in °C, unitless text.

compound=O=C(O)c1cc(NCc2cc(O)ccc2O)ccc1O numeric_result=0.1
compound=O=c1c2ccccc2[nH]c(=S)n1CCN1CCC(=C(c2ccc(F)cc2)c2ccc(F)cc2)CC1 numeric_result=-0.7
compound=O=C1NC(=O)C(c2cn(CCCn3ccnc3)c3ccccc23)=C1Nc1ccccc1 numeric_result=0.6
compound=CC(C)(C)c1cc(C=C2C(=O)C=CC2=O)cc(C(C)(C)C)c1O numeric_result=4.4
compound=COc1cc(O)c2c(c1)oc(=O)c1c3cc(O)c(O)cc3oc21 numeric_result=0.1

Find ΔTm for CN(C)c1ccc(CC2C(=O)Nc3ccccc32)cc1 (stereo unspecified) on UniProt Q00536 and write it down.
-0.5

----------
Target: Serine/threonine-protein kinase 17A (Homo sapiens)
Below, each entry is listed alongside its reported ΔTm.
Give just the number in °C; leave the unit off.

compound=Cn1cc(C2=C(c3cn(CCCSC(=N)N)c4ccccc34)C(=O)NC2=O)c2ccccc21 numeric_result=4.3
compound=CC(C)c1nn(-c2c(Cl)cccc2Cl)c2nc(Cc3ccc(OCCO)cc3)[nH]c(=O)c12 numeric_result=0.1
compound=Cc1ccc(NC2=CC(=O)c3sc(C)nc3C2=O)cc1 numeric_result=-0.8
compound=CCOC(=O)c1c(C)[nH]c(/C=C2\C(=O)Nc3ccccc32)c1C numeric_result=4.5
compound=O=c1c(-c2ccc(O)cc2)coc2cc(O)cc(O)c12 numeric_result=0.6

Report value: ΔTm, system: Serine/threonine-protein kinase 17A (Homo sapiens), compound: CC(=O)O/N=C1/C(=C2/C(=O)Nc3cc(Br)ccc32)Nc2ccccc21
3

Look up and report measured ΔTm (Serine/threonine-protein kinase 17A (Homo sapiens)) for the following compound: CC(C)(C)n1nc(-c2ccc(Cl)cc2)c2c(N)ncnc21
0.1

Please tell me the measured ΔTm for CC(C)n1cnc2c(NCc3ccccc3)nc(NCCCO)nc21 ; system: Serine/threonine-protein kinase 17A (Homo sapiens).
0

Write ΔTm of COc1ccc(S(=O)(=O)N(CCO)c2ccccc2CN(C)C/C=C/c2ccc(Cl)cc2)cc1 ; system used: Serine/threonine-protein kinase 17A (Homo sapiens)
0.1

Supply ΔTm measured with Serine/threonine-protein kinase 17A (Homo sapiens) for O=c1cc(-c2ccc(O)cc2)oc2cc(O)cc(O)c12 .
7.3

Give ΔTm only, for COc1cc(/C=C/C(=O)CC(=O)/C=C/c2ccc(O)c(OC)c2)ccc1O , using Serine/threonine-protein kinase 17A (Homo sapiens) data.
7.4

Report measured ΔTm on Serine/threonine-protein kinase 17A (Homo sapiens); entry: NC(=O)c1ccc2[nH]c(-c3ccc(Oc4ccc(Cl)cc4)cc3)nc2c1
0.7

Specify ΔTm for Cl.Cn1cc(C2=C(c3ccc4cc5n(c4c3)CCC(CN)C5)C(=O)NC2=O)c2ccccc21 (stereo not given) , system Serine/threonine-protein kinase 17A (Homo sapiens).
3.5

Lab note: Serine/threonine-protein kinase 17A (Homo sapiens) assay, enter ΔTm for Cc1cncc2cccc(S(=O)(=O)N3CCCNC[C@@H]3C)c12 here
2

Quote ΔTm with test system Serine/threonine-protein kinase 17A (Homo sapiens) for COc1cc2ncnc(Nc3cccc(Br)c3)c2cc1OC
3.3

Enter measured ΔTm, system Serine/threonine-protein kinase 17A (Homo sapiens), for the compound shown: CN(C)C[C@@H]1CCn2cc(c3ccccc32)C2=C(C(=O)NC2=O)c2cn(c3ccccc23)CCO1
-0.2

For Serine/threonine-protein kinase 17A (Homo sapiens), give ΔTm of the listed compound: Ic1cccc(CSc2nnc(-c3ccncc3)o2)c1
0.3

Identify measured ΔTm obtained with Serine/threonine-protein kinase 17A (Homo sapiens) for COc1cc(O)c2c(c1)oc(=O)c1c3cc(O)c(O)cc3oc21 .
3

Give the observed ΔTm of Cc1[nH]c(/C=C2\C(=O)Nc3ccc(S(=O)(=O)N(C)c4cccc(Cl)c4)cc32)c(C)c1C(=O)N1CCN(C)CC1 for Serine/threonine-protein kinase 17A (Homo sapiens).
3.3

Supply ΔTm measured with Serine/threonine-protein kinase 17A (Homo sapiens) for CC(C)n1cnc2c(NCc3ccccc3O)nc(NCCCO)nc21 .
0

----------
Target: Serine/threonine-protein kinase PAK 6 (Homo sapiens) (UniProt Q9NQU5)
Sequence (Q9NQU5 whole entry, looked up): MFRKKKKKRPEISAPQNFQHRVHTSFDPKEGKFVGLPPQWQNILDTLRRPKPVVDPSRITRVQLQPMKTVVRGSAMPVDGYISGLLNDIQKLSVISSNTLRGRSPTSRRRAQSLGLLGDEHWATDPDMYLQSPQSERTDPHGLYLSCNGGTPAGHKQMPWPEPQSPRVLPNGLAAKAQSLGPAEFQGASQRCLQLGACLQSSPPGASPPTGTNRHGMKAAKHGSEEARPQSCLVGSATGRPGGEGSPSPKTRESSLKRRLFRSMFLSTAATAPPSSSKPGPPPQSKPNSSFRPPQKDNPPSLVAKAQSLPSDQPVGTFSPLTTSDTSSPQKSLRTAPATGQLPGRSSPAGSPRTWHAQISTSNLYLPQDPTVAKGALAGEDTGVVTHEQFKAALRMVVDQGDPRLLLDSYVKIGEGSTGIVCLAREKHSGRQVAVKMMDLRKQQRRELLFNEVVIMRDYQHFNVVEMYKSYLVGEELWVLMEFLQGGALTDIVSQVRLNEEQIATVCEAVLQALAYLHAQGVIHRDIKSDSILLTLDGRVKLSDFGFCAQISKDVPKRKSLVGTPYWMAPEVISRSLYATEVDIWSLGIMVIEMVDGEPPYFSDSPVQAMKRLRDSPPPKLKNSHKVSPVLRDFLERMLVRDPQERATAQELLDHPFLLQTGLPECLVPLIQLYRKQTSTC
We use 0.5 °C as the dividing line for ΔTm: on or above the line is met, below is not met.

Known results for molecules:
molecule=O=Nc1c(-c2c(O)[nH]c3ccccc23)[nH]c2ccccc12 class_name=met
molecule=O=C1Nc2cc(Br)ccc2/C1=C1/Nc2ccccc2/C1=N\O class_name=met
molecule="O=C1Cc2c([nH]c3ccc(Br)cc23)-c2ccccc2N1 [KENPAULLONE]" class_name=met

Has O=C1Cc2c([nH]c3ccc([N+](=O)[O-])cc23)-c2ccccc2N1 a recorded ΔTm greater than or equal to 0.5 °C?
met

Could you verify whether the entry CC(C)n1cnc2c(NCc3ccccc3)nc(NCCCO)nc21 shows ΔTm of no less than 0.5 °C?
met

----------
Target or system Serine/threonine-protein kinase PAK 6 (Homo sapiens) (UniProt Q9NQU5): recorded ΔTm listed per item.
Report as a plain number; the unit °C is understood.

structure_as_smiles=OC[C@H]1O[C@@H](n2cnc3cc(Cl)c(Cl)cc32)[C@H](O)[C@@H]1O tested_target="Serine/threonine-protein kinase PAK 6 (Homo sapiens) (UniProt Q9NQU5)" reading_unit=°C numeric_result=-0.4
structure_as_smiles=CN(C)S(=O)(=O)c1ccc2c(c1)/C(=C/c1cc3c([nH]1)CCCC3)C(=O)N2 tested_target="Serine/threonine-protein kinase PAK 6 (Homo sapiens) (UniProt Q9NQU5)" reading_unit=°C numeric_result=-4.4

Determine its reported ΔTm: CC(C)(C)c1cc(C=C2C(=O)C=CC2=O)cc(C(C)(C)C)c1O
-2.5

Find the measured ΔTm of Oc1ccc(-c2nc(-c3ccc(F)cc3)c(-c3ccncc3)[nH]2)cc1 and report it.
-0.2

Respond only with ΔTm recorded for CC(C)n1cnc2/c(=N/c3cccc(Cl)c3)nc(NCCO)[nH]c21
3.8

Identify measured ΔTm corresponding to COc1ccc(Cl)cc1NC(=O)Nc1cc(C)nc2ccccc12
1.9

Report ΔTm for CC[C@H](CO)Nc1nc(NCc2ccccc2)c2ncn(C(C)C)c2n1
0.5

Look up and report measured ΔTm for this entry: O=[N+]([O-])c1ccc(-c2nc(-c3ccc(F)cc3)c(-c3ccncc3)[nH]2)cc1
-0.2

Please list ΔTm recorded for the compound Cn1cc(C2=C(c3cn(CCCSC(=N)N)c4ccccc34)C(=O)NC2=O)c2ccccc21
3.1

Answer with the recorded ΔTm for the compound listed here: CC(C)c1cc(/C=C(\C#N)C(=O)NCCCc2ccccc2)cc(C(C)C)c1O
0.1

----------
Target: Serine/threonine-protein kinase pim-2 (Homo sapiens, UniProt Q9P1W9)
Sequence (Q9P1W9 whole entry, looked up): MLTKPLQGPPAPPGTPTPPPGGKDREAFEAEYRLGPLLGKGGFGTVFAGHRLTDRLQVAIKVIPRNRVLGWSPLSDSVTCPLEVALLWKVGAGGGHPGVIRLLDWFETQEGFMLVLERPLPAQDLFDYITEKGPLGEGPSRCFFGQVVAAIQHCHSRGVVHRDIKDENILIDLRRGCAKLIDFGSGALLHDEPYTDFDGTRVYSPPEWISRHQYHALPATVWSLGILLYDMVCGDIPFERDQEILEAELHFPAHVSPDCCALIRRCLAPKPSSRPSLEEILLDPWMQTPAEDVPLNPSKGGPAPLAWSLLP
We use 0.4 °C as the dividing line for ΔTm: on or above the line is true, below is false.

Check out these entries, answers already filled in.
compound=O=c1cc(N2CCOCC2)oc2c(-c3ccccc3)cccc12 class_name=true
compound=O=S(=O)(c1cccc2c(Cl)cccc12)N1CCCNCC1 class_name=true
compound="O=C(Nc1cccc(Nc2nccc(Nc3cccc(C(F)(F)F)c3)n2)c1)C1CC1 [ANILINOPYRIMIDINE1]" class_name=true
compound="N#CCCc1ccc2c(c1)-c1[nH]c3ccc([N+](=O)[O-])cc3c1CC(=O)N2 [ALSTERPAULLONE 2]" class_name=true
compound="NC1=NC(=O)/C(=C2\\CCNC(=O)c3[nH]c(Br)cc32)N1 [HYMENIALDISINE]" class_name=true

Hi team, for COC1=C2C[C@@H](C)C[C@H](OC)[C@H](O)[C@@H](C)/C=C(\C)[C@H](OC(N)=O)[C@@H](OC)/C=C\C=C(/C)C(=O)NC(=CC1=O)C2=O , is the recorded ΔTm at or above 0.4 °C?
false

# bool: ΔTm of O=C1c2ccccc2-c2n[nH]c3cccc1c23 >= 0.4 °C
true

Please tell me: is the compound COc1cc2ncnc(Nc3cccc(Br)c3)c2cc1OC at or over 0.4 °C in terms of ΔTm?
true

Can O=c1c(O)c(-c2ccc(O)c(O)c2)oc2cc(O)cc(O)c12 [QUERCETIN] be said to have ΔTm at or above 0.4 °C?
true

Quick check, ΔTm >= 0.4 °C? O=C(Nc1cccc(Nc2cc(Nc3cccc(C(F)(F)F)c3)ncn2)c1)C1CC1
true

----------
Molecular target: 3-phosphoinositide-dependent protein kinase 1 (Homo sapiens) (UniProt O15530)
Sequence (O15530 whole entry): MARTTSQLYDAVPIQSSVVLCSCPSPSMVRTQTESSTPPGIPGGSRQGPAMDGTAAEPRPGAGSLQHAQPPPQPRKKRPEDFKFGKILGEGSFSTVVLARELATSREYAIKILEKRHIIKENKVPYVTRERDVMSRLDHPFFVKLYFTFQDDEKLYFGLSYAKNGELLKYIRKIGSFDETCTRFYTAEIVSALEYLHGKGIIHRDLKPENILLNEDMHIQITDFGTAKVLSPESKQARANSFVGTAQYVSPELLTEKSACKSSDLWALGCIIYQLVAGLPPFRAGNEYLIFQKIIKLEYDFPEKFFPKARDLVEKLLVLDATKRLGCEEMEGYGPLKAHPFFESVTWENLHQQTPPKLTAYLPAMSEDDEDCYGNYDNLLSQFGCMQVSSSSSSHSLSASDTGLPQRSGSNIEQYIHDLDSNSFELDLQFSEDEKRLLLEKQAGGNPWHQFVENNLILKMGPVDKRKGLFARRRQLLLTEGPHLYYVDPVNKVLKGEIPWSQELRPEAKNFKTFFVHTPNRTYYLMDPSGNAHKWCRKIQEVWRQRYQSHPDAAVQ
If the reported ΔTm equals or exceeds -0.3 °C, assign Y. If not, assign N.

molecule=Cc1ccc(NC(=O)c2ccc(CN3CCN(C)CC3)cc2)cc1Nc1nccc(-c2cccnc2)n1 class_name=Y
molecule=Nc1n[nH]c2nc3ccccc3nc12 class_name=Y
molecule=O=S(=O)(NCCNC/C=C/c1ccc(Br)cc1)c1cccc2cnccc12 class_name=N
molecule=O=C(O)c1cc(N(Cc2ccccc2O)Cc2cc(O)ccc2O)ccc1O class_name=Y
molecule=CCN(CC)CCNC(=O)c1c(C)[nH]c(/C=C2\C(=O)Nc3ccc(F)cc32)c1C class_name=Y
molecule=O=c1ccc2ccc(O)c(O)c2o1 class_name=Y
molecule=Ic1cccc(CSc2nnc(-c3ccncc3)o2)c1 class_name=N

Hi team, for O=C1c2ccccc2-[n+]2ccc3c([nH]c4ccccc43)c21 [FASCAPLYSIN CHLORIDE] , is the recorded ΔTm at or above -0.3 °C?
N
